- EXPERIMENTAL_TARGET: T1, recombinant, soluble human ASGR-1 (human, UniProt P07306 62-291)
- T1 construct: biotinylated in the binning assay; also called soluble huASGR-1; Soluble ASGR-1 (Amgen)
- T1 sequence: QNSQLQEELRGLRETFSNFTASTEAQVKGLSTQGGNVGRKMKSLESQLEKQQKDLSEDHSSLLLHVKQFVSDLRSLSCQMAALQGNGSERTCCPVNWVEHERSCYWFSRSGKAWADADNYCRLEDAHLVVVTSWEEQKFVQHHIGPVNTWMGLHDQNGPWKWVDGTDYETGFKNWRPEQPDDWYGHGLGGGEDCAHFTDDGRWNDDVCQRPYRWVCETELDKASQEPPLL
- MEASUREMENT_DESCRIPTION: Octet BLI dissociation, pH 7.4 minus calcium
Here the recorded % Change Compared to pH 7.4 + Calcium is given for each entry.

Worked cases, answers included:
Qu. Fill in: % Change Compared to pH 7.4 + Calcium of 60C12 (antibody, V domains shown, hybridoma mAb) VH: QVQLVESGGGVVQPGRSLRLSCAASGFTFSSYGMHWVRQAPGKGLEWVAVIWYDGSNKYYVDSVKGRFTISRDNSKNTLYLQMNSLRAEDTAVYYCARRYSRSWTGGMDVWGQGTTVTVSS VL: DIVMTQTPLSLSVTPGQPASISCKSSQSLLHSEGKTYLYWYLQKPGQPPQFLIYEVSNRFSGVPDRFSGSGSGTDFTLKISRVEAEDVGIYYCMQSIKYPLTFGGGTKVEIK is ___
Ans. 14%

Qu. Then what about the binder 73G1 (antibody, V domains shown, hybridoma mAb) VH: QVQLVESGGGVVQPGRSLRLSCAGTGFTFSYYGMHWVRQAPGKGLEWVAVTTYDGSNKYYADSVKGRFTSSRDNSKNTLYLQMNSLRAEDTAVYHCARETGTWAFDIWGQGTMVTVSL VL: QTVVTQEPSFSVSPGGTVTLTCGLSSGSVSTSYYPSWYQQTPGQAPRTLIYNTNTRSSGVPDRFSGSILGNKAALTITGAQADDESDYYCVLYMGSAIWVFGGGTKLTVL ?
Ans. 100%

Qu. Then what about the binder 22G5 (antibody, V domains shown, hybridoma mAb) VH: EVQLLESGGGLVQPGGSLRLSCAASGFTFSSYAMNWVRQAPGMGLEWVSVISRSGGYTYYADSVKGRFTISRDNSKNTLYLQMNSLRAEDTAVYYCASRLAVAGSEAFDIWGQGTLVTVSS VL: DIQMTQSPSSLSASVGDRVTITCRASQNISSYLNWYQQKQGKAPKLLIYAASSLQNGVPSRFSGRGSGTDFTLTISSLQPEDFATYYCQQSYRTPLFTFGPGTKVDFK ?
Ans. 40%

---
Qu. Fill in: % Change Compared to pH 7.4 + Calcium of 58G11 (antibody, V domains shown, hybridoma mAb) VH: EVQLVESGGGLVQPGGSLRLSCAASGFTFSSYSMNWVRQAPGKGLEWISYISTSSSTIFYADSVKGRFTISRDSAKNSLYLQMNSLRDEDTAVYYCARGDTAMVLYYYGMDVWGQGTTVTVSS VL: SYELTQPPSVSVSPGQTASITCSGDKLGDKYASWYQQKPGQSPVLVIYQDNKRPSGIPERFSGSNSGNTATLTISGTQAMDEADYYCQAWNNNTVMFGGGTKLTVL is ___
Ans. 38%

Qu. Then what about the binder 52H1 (antibody, V domains shown, hybridoma mAb) VH: QVQLVESGGGVVQPGRSLRLSCAASGFTFSGYGMHWVRQAPGKGLEWVAVIWYDGSNKYYADSVKGRFTISRDNSKNTLYLQMNSLRAEDTAVYYCARDRVYCSSSSCSYYYYYYGMDVWGQGTTVTVSS VL: SYELTQPPSVFVSPGQTASITSSGDKLGDKYVSWYQQKPGQSPVLVIYQDRKRPSGIPERFSGSNSGNTATLTISGTQAMDEADYYCQAWDNSTVVFGGGTKLTVL ?
Ans. 5%

Qu. Then what about the binder 191G1 (antibody, V domains shown, hybridoma mAb) VH: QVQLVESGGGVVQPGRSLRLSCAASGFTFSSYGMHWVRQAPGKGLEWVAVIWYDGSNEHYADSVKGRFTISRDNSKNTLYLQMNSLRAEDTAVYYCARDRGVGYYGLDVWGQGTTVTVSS VL: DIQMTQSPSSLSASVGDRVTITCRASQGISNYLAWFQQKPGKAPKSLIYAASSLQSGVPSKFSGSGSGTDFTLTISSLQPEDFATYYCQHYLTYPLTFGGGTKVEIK ?
Ans. -10%

Qu. Then what about the binder 202A3 (antibody, V domains shown, hybridoma mAb) VH: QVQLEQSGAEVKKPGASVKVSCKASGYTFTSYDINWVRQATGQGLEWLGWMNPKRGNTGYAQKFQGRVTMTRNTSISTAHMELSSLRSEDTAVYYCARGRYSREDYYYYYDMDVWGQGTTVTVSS VL: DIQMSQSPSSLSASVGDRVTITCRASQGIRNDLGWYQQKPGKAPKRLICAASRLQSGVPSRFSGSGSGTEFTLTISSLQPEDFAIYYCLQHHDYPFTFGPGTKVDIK ?
Ans. -21%

Qu. Then what about the binder 190F8 (antibody, V domains shown, hybridoma mAb) VH: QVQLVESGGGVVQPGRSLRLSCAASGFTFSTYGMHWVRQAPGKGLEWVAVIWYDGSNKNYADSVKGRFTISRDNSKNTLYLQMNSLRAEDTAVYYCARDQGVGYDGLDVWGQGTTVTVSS VL: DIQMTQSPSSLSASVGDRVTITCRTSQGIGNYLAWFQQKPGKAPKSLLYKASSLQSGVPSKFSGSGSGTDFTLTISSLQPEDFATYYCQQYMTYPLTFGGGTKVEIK ?
Ans. -1%

Qu. Then what about the binder 196F4 (antibody, V domains shown, hybridoma mAb) VH: EVQLLESGGGLVQPGGSLRFSCAASGFTFSSCAMTWVRQAPGKGLEWVSAISGSGGSTYYADSVKGRFTISRDNSKNTLYLQMNSLRAEDTAVYYCAKVGGLTGSYYYYGMDVWGQGTTVTVSS VL: DFQMIQSPSSLSASVGDRVTITCRASQRIHSYLNWYQQKPGKAPKLLIYTASSLQGGVPSRFSGSGSGTDFTLTISSLQPEDFATYYCQQSYGSPLTFGGGTKVEIK ?
Ans. -8%

Qu. Then what about the binder 53F2 (antibody, V domains shown, hybridoma mAb) VH: QVQLVQSGAEVKKPGASVKVSCKASGYTFTGYYLHWVRQAPGQGLEWMGWINPNRNGTNYAQNFQGRVTMTRDTSISTAYMELSRLKSDDTAVYYCARDGTSSFDYWGQGTLVTVSS VL: DIQMTQSPSSVSASVGDRVTITCRASQGISKWLAWYQQKPGKAPNLLLYAASSLQSGVPSKFSGSGSGTDFTLTISSLQPEDFATYYCQQANSFPFTFGPGTKVDVK ?
Ans. 15%
